- tested-target: T1, human cholecystokinin-2 receptor (human, UniProt P32239 1-447)
- T1 construct: whole, on cells; also called CCK-2R; CCK-2 receptor
- T1 sequence (looked up): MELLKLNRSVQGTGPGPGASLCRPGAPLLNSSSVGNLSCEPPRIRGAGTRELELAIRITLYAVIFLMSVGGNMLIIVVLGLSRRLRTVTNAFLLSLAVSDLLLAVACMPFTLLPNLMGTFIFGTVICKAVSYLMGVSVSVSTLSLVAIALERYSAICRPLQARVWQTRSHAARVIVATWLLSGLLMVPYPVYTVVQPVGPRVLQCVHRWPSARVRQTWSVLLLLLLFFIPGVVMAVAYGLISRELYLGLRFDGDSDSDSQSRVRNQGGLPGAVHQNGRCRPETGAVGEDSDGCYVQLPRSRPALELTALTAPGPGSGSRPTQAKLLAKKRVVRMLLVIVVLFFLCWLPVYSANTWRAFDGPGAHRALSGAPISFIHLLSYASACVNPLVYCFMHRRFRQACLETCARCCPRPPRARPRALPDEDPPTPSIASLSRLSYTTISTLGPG
- test-protocol: SPA competition vs [125I]-CCK-8s, membranes
Starred links: 1 amine or outer side, 2 acyl side, 3 side chain; linkers in the order of their positions; H or OH if unused. Non-standard residues stand in square brackets, D forms with d. *: point of attachment. Phe(4-CH2SO3H) = N[C@@H](Cc1ccc(CS(=O)(=O)O)cc1)C(=O)O; sY = N[C@@H](Cc1ccc(OS(=O)(=O)O)cc1)C(=O)O; C18 diacid = O=C(O)CCCCCCCCCCCCCCCCC(=O)*; γGlu = O=C(O)[C@H](CCC(=O)[*:2])N[*:1]; NMeF = CN[C@@H](Cc1ccccc1)C(=O)O; dNMeD = CN[C@H](CC(=O)O)C(=O)O; Nle = CCCC[C@H](N)C(=O)O; AEEA = NCCOCCOCC(=O)O
readout-name: pIC50
Numbers only, as −log10 of the molar value.

Sample answers from the record:
* {C18 diacid-γGlu-AEEA-AEEA}-D[sY]PGW[Nle][dNMeD][NMeF]-NH2 (X = Nle or Nal) | 5.28
* {C18 diacid}-GSSGSSD[sY]LGW[Nle][dNMeD][NMeF]-NH2 (SMILES CCCC[C@H](NC(=O)[C@H](Cc1c[nH]c2ccccc12)NC(=O)CNC(=O)[C@H](CC(C)C)NC(=O)[C@H](Cc1ccc(OS(=O)(=O)O)cc1)NC(=O)[C@H](CC(=O)O)NC(=O)[C@H](CO)NC(=O)[C@H](CO)NC(=O)CNC(=O)[C@H](CO)NC(=O)[C@H](CO)NC(=O)CNC(=O)CCCCCCCCCCCCCCCCC(=O)O)C(=O)N(C)[C@H](CC(=O)O)C(=O)N(C)[C@@H](Cc1ccccc1)C(N)=O, X = Nle or Nal; The Gly-Ser-Ser-Gly-Ser-Ser linker is written as part of the chain) [17-Carboxyheptadecanoyl-Gly-Ser-Ser-Gly-Ser-Ser-Asp-sTyr-Leu-Gly-Trp-Nle-DMeAsp-MePhe-amide] | 6.43

Continue with the binder presented below.
Sample {C18 diacid-γGlu-AEEA-AEEA}-K[AEEA]D[Phe(4-CH2SO3H)][Nle]GW[Nle][dNMeD][NMeF]-NH2 (X = Nle or Nal) ; pIC50 observed: 5.13
